Listed here are compounds together with their documented Cmax.
- Test system: Mus musculus
- method_description: Cmax in Swiss albino mouse at 10 mg/kg, po administered as single dose by LC-MS/MS analysis
- Format: ADME, organism-based
- Parameters: dose 10 mg/kg, route oral
- measurement_parameters: in vivo
Response body: numeric value in ng/mL, unit text excluded.

For the compound `Cc1cccc(Oc2nn(C(C)(C)C)c3ncnc(N)c23)c1` , give its reported Cmax.
76.69

For the compound Nc1ncnc2c1c(Oc1cccc(Cl)c1)nn2CC1CCNCC1(F)F (centres undefined) , give its reported Cmax.
1048.8

For the compound `CC(C)(C)n1nc(Oc2cccc(Cl)c2)c2c(N)ncnc21` , give its reported Cmax.
1136.36

For the compound `Nc1ncnc2c1c(Oc1cccc(Cl)c1)nn2CC1CCNCC1` , give its reported Cmax.
182.56

###

- method_description: Apparent permeability from apical to basolateral side in human Caco2 cells at 5 uM by LC-MS/MS analysis
- Type: ADME, cell-based
- measurement_parameters: caco-2, 5 µM
Please assign Not satisfied whenever Papp is at or above 30 ×10⁻⁶ cm/s, and Satisfied whenever it is below.

- compound: "Nc1ncnc2c1c(Sc1cccc(Cl)c1)nn2CC1CCNCC1(F)F (configuration not stated)"
  cat: "Satisfied"
- compound: "CC(C)(C)n1nc(Oc2cccc(Cl)c2)c2c(N)ncnc21"
  cat: "Not satisfied"
- compound: "Nc1ncnc2c1c(Oc1cccc(Cl)c1)nn2CC1CCNCC1(F)F (configuration not stated)"
  cat: "Satisfied"
- compound: "CC(C)(C)n1nc(Cc2cccc(Cl)c2)c2c(N)ncnc21"
  cat: "Not satisfied"
- compound: "Nc1ncnc2c1c(Oc1cccc(Cl)c1)nn2CC1CCNCC1"
  cat: "Satisfied"

API: query returns whether the compound falls strictly under 30 ×10⁻⁶ cm/s in Papp. Query: `Cc1cccc(Oc2nn(C(C)(C)C)c3ncnc(N)c23)c1`
Satisfied

API: query returns whether the compound falls strictly under 30 ×10⁻⁶ cm/s in Papp. Query: `Nc1ncnc2c1c(Sc1cccc(Cl)c1)nn2CC1CCNCC1`
Satisfied

###

- method_description: Dissociation constant, pKa of compound
- Assay type: physicochemical
test_readout: pKa

- compound: "Nc1ncnc2c1c(Oc1cccc(Cl)c1)nn2CC1CCNCC1(F)F (centres undefined)"
  pKa: 7.1

For the compound `Nc1ncnc2c1c(Sc1cccc(Cl)c1)nn2CC1CCNCC1` , give its reported pKa.
10.4

For the compound Nc1ncnc2c1c(Sc1cccc(Cl)c1)nn2CC1CCNCC1(F)F (centres undefined) , give its reported pKa.
7.1

For the compound `Nc1ncnc2c1c(Oc1cccc(Cl)c1)nn2CC1CCNCC1` , give its reported pKa.
10.4

###

- method_description: AUClast in Swiss albino mouse at 10 mg/kg, po administered as single dose by LC-MS/MS analysis
- Type: ADME, organism-based
- Design: dose 10 mg/kg, route oral, time 0 - last
- measurement_parameters: Swiss albino, in vivo
test_readout: AUC(0-t) (ng·h/mL)
Response body: numeric value in ng·h/mL, unit text excluded.

For the molecule `CC(C)(C)n1nc(Cc2cccc(Cl)c2)c2c(N)ncnc21` , give its reported AUC(0-t).
919

###

- method_description: Ratio of total drug level in CNS to serum in Swiss albino mouse at 10 to 50 mg/kg, po administered as single dose upto 24 hrs by LC-MS/MS analysis
- Format: ADME, organism-based
test_readout: Kp at 24 h
Answer as a number with no unit attached.

For the molecule Nc1ncnc2c1c(Oc1cccc(Cl)c1)nn2CC1CCNCC1(F)F (stereo unspecified) , give its reported Kp at 24 h.
5.6

###

Listed here are molecules together with their documented AUC.
- Tested on: Mus musculus
- method_description: AUC (infinity) in Swiss albino mouse at 10 mg/kg, po administered as single dose by LC-MS/MS analysis
- Type: ADME, organism-based
- Design: dose 10 mg/kg, time infinity, route oral
- measurement_parameters: in vivo
Response body: numeric value in ng·h/mL, unit text excluded.

Known results for molecules:
- molecule: "CC(C)(C)n1nc(Oc2cccc(Cl)c2)c2c(N)ncnc21"
  recorded_measurement: 1279.2
- molecule: "Nc1ncnc2c1c(Oc1cccc(Cl)c1)nn2CC1CCNCC1(F)F (centres undefined)"
  recorded_measurement: 3547.95
- molecule: "Cc1cccc(Oc2nn(C(C)(C)C)c3ncnc(N)c23)c1"
  recorded_measurement: 91.42

Moving on to the next molecule.
For the molecule `Nc1ncnc2c1c(Oc1cccc(Cl)c1)nn2CC1CCNCC1` , give its reported AUC.
891.24

###

- Tested on: Mus musculus
- method_description: AUClast in Swiss albino mouse at 10 mg/kg, po administered as single dose by LC-MS/MS analysis
- Format: ADME, organism-based
- Parameters: dose 10 mg/kg, route oral, time 0 - last
- measurement_parameters: in vivo
Listed here are compounds together with their documented AUClast.
Response body: numeric value in ng·h/mL, unit text excluded.

Known results for compounds:
- compound: "Cc1cccc(Oc2nn(C(C)(C)C)c3ncnc(N)c23)c1"
  AUClast (ng·h/mL): 85.47
- compound: "Nc1ncnc2c1c(Oc1cccc(Cl)c1)nn2CC1CCNCC1"
  AUClast (ng·h/mL): 757.85
- compound: "Nc1ncnc2c1c(Oc1cccc(Cl)c1)nn2CC1CCNCC1(F)F (centres undefined)"
  AUClast (ng·h/mL): 3058.44

Moving on to the next compound.
For Mus musculus, give the measured AUClast of the entry `CC(C)(C)n1nc(Oc2cccc(Cl)c2)c2c(N)ncnc21`
1172.75

###

- Tested on: Mus musculus
- method_description: Tmax in Swiss albino mouse at 10 mg/kg, po administered as single dose by LC-MS/MS analysis
- Format: ADME, organism-based
- measurement_parameters: in vivo
Listed here are compounds together with their documented Tmax.
Param answer (str): number followed by unit.

- compound: "CC(C)(C)n1nc(Oc2cccc(Cl)c2)c2c(N)ncnc21"
  system: "Mus musculus"
  Tmax: "15 min"
- compound: "Nc1ncnc2c1c(Oc1cccc(Cl)c1)nn2CC1CCNCC1(F)F (centres undefined)"
  system: "Mus musculus"
  Tmax: "15 min"
- compound: "Nc1ncnc2c1c(Oc1cccc(Cl)c1)nn2CC1CCNCC1"
  system: "Mus musculus"
  Tmax: "120 min"

Moving on to the next compound.
For the compound `Cc1cccc(Oc2nn(C(C)(C)C)c3ncnc(N)c23)c1` , give its reported Tmax.
15 min

###

- method_description: Cmax in Swiss albino mouse at 10 mg/kg, po administered as single dose by LC-MS/MS analysis
- Type: ADME, organism-based
- Design: dose 10 mg/kg, route oral
- measurement_parameters: Swiss albino, in vivo
test_readout: Cmax (ng/mL)
Response body: numeric value in ng/mL, unit text excluded.

For the compound `CC(C)(C)n1nc(Cc2cccc(Cl)c2)c2c(N)ncnc21` , give its reported Cmax.
585

###

- method_description: Tmax in Swiss albino mouse at 10 mg/kg, po administered as single dose by LC-MS/MS analysis
- Type: ADME, organism-based
- measurement_parameters: Swiss albino, in vivo
test_readout: Tmax (min)
Response body: numeric value in min, unit text excluded.

For the compound `CC(C)(C)n1nc(Cc2cccc(Cl)c2)c2c(N)ncnc21` , give its reported Tmax.
15

###

- method_description: Apparent permeability from basolateral to apical side in human Caco2 cells at 5 uM by LC-MS/MS analysis
- Format: ADME, cell-based
- measurement_parameters: caco-2, 5 µM
test_readout: Papp (×10⁻⁶ cm/s)
Response body: numeric value in ×10⁻⁶ cm/s, unit text excluded.

Known results for molecules:
- molecule: "CC(C)(C)n1nc(Oc2cccc(Cl)c2)c2c(N)ncnc21"
  Papp / ×10⁻⁶ cm/s: 30.6
- molecule: "Cc1cccc(Oc2nn(C(C)(C)C)c3ncnc(N)c23)c1"
  Papp / ×10⁻⁶ cm/s: 14.6
- molecule: "Nc1ncnc2c1c(Oc1cccc(Cl)c1)nn2CC1CCNCC1"
  Papp / ×10⁻⁶ cm/s: 9.58
- molecule: "CC(C)(C)n1nc(Cc2cccc(Cl)c2)c2c(N)ncnc21"
  Papp / ×10⁻⁶ cm/s: 28.7
- molecule: "Nc1ncnc2c1c(Sc1cccc(Cl)c1)nn2CC1CCNCC1(F)F (configuration not stated)"
  Papp / ×10⁻⁶ cm/s: 25.3

For the molecule `Nc1ncnc2c1c(Sc1cccc(Cl)c1)nn2CC1CCNCC1` , give its reported Papp.
25.6

For the molecule Nc1ncnc2c1c(Oc1cccc(Cl)c1)nn2CC1CCNCC1(F)F (configuration not stated) , give its reported Papp.
21.2

###

- Tested on: Mus musculus
- method_description: Volume of distribution at steady state in Swiss albino mouse at 3 mg/kg, iv administered as single dose by LC-MS/MS analysis
- Format: ADME, organism-based
- measurement_parameters: in vivo
test_readout: Vdss (L/kg)
Response body: numeric value in L/kg, unit text excluded.

For Mus musculus, give the measured Vdss of the entry `CC(C)(C)n1nc(Oc2cccc(Cl)c2)c2c(N)ncnc21`
1.1

For Mus musculus, give the measured Vdss of the entry Nc1ncnc2c1c(Oc1cccc(Cl)c1)nn2CC1CCNCC1(F)F (centres undefined)
3.68

For Mus musculus, give the measured Vdss of the entry `Cc1cccc(Oc2nn(C(C)(C)C)c3ncnc(N)c23)c1`
2.32

For Mus musculus, give the measured Vdss of the entry `Nc1ncnc2c1c(Oc1cccc(Cl)c1)nn2CC1CCNCC1`
19.59

Data origin: ChEMBL document CHEMBL4028859
